- Read-out: Transforming growth factor beta 1 (TGFb1), TGFB1 (gene 7040)
- PROTOCOL_DESCRIPTION: BSK_KF3CT_TGFb1: BioMAP Diversity Plus: KF3CT Assay for Transforming growth factor beta 1 (TGFb1) Biomarker Activity (AID 2283072)
- SETUP_CONDITIONS: primary human keratinocytes with fibroblasts; actives raise or lower the signal
Active and inactive are the calls of the source. How the source made its calls: active means hit-call score of the fitted dose curve at least 0.9, where 1 is the maximum; inactive means score below 0.9.
Thanks in advance; please answer with one of these: Y for active, N for inactive

Past entries and their recorded results:
- Nc1ccc(Cl)cc1: N
- O=[N+]([O-])c1ccccc1: N
- O=C(O)C(Cl)Cl: N
- CCOP(=S)(Oc1ccc([N+](=O)[O-])cc1)c1ccccc1 (centres undefined): N
- CCOP(=S)(OCC)SCSc1ccc(Cl)cc1: Y
- ClC(Cl)(Cl)c1ccccc1: N

Request: Outcome? `CCCCc1ccccc1`
Result: N

Request: Outcome? `CCOC(=O)c1ccccc1C(=O)OCC`
Result: N

Request: Outcome? `Nc1ccc([N+](=O)[O-])cc1Cl`
Result: N

* * *

- SYSTEM: Cellular tumor antigen p53 (Homo sapiens) (UniProt P04637)
- Sequence (P04637 whole entry, looked up): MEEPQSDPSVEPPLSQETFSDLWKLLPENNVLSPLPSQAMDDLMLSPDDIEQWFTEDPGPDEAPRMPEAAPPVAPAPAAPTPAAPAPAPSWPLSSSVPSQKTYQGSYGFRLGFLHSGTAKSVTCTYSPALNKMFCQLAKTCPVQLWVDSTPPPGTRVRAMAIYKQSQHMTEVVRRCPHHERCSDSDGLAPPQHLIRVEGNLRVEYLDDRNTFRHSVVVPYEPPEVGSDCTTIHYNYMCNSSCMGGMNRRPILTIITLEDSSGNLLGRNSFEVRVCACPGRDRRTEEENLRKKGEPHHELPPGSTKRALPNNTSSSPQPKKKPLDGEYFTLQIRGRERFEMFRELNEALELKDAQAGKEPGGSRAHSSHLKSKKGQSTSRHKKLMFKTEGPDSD
- PROTOCOL_DESCRIPTION: TOX21_p53_BLA_p5_ratio: Tox21 HCT-116 p53 Agonism Beta-lactamase Assay, Ratio, Phase 5 (AID 2283599)
Inconclusive results are not listed. The source made the active and inactive calls. How the source made its calls: active means hit-call score of the fitted dose curve at least 0.9, where 1 is the maximum; inconclusive means response in the unintended direction; inactive means score below 0.9.
Thanks in advance; please answer with one of these: True = active, False = inactive

Past entries and their recorded results:
* NNC(N)=S | False
* CCCCN(CC)C(=O)SCCC | False
* CO/N=C(/C(=O)OC)c1ccccc1COc1ccccc1C | False

Request: Outcome? C=C(C)C(=O)OCC1CO1 (centres undefined)
Result: False

Request: Outcome? CC(Cc1ccc(OCC(=O)O)cc1)NCC(O)c1csc(C(F)(F)F)n1 (centres undefined)
Result: False

Request: Outcome? `CCN(CC)c1ccccc1`
Result: False

* * *

- PROTOCOL_DESCRIPTION: CCTE_Shafer_MEA_acute_network_burst_percentage: CCTE's Neural Acute Assay for Percentage of Network Bursts, Shafer Lab (AID 2284022);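 further: curves fitted for loss so actives lower network burst percentage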
Calls of active or inactive are those of the source. How the source made its calls: active means hit-call score of the fitted dose curve at least 0.9, where 1 is the maximum; inactive means score below 0.9.
Thanks in advance; please answer with one of these: Yes = active, No = inactive

Past entries and their recorded results:
• CC(Cl)(Cl)C(=O)O = No
• CC(C)(C)c1ccccc1OP(=O)(Oc1ccccc1)Oc1ccccc1 = Yes
• ClC(Cl)(Cl)c1ccccc1 = No
• [N-]=[N+]=[N-] = No
• O=C(O)C1C(C(=O)O)C2(Cl)C(Cl)=C(Cl)C1(Cl)C2(Cl)Cl (centres undefined) = No
• CCCCC(CC)COP(=O)(Oc1ccccc1)Oc1ccccc1 (centres undefined) = No
• Cc1ccc(N)cc1N = No
• COCCOCCO = No

Please examine the following record next.
Request: Outcome? CCOP(=S)(Oc1ccc([N+](=O)[O-])cc1)c1ccccc1 (centres undefined)
Result: No

* * *

- SYSTEM: Transcriptional activator Myb (Homo sapiens) (UniProt P10242)
- Sequence (P10242 whole entry, looked up): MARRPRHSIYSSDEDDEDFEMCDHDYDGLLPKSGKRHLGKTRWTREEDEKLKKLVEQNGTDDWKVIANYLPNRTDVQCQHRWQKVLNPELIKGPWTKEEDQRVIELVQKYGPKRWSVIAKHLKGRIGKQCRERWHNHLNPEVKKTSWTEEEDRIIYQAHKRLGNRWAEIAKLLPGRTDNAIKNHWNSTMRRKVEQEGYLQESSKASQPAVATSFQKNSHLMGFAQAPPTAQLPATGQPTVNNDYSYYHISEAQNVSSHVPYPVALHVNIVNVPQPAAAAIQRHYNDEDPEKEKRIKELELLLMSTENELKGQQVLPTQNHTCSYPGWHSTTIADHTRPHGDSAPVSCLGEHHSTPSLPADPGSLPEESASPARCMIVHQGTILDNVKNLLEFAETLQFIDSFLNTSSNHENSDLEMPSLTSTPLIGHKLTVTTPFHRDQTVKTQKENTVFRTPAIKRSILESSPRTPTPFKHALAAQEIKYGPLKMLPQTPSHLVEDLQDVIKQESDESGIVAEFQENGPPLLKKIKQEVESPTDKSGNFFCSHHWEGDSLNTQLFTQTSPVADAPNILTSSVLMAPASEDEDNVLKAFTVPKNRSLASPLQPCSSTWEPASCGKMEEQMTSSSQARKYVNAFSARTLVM
- PROTOCOL_DESCRIPTION: ATG_Myb_CIS: Attagene CIS-FACTORIAL HepG2 Assay for human Myeloblastosis (Myb) Proto-Oncogene Transcription Factor (AID 2282986)
- SETUP_CONDITIONS: HepG2 Attagene CIS-FACTORIAL Myb reporter transcription; actives raise or lower the signal
Activity calls are given as the source filed them. How the source made its calls: active means hit-call score of the fitted dose curve at least 0.9, where 1 is the maximum; inactive means score below 0.9.
Thanks in advance; please answer with one of these: yes (1) = active, no (0) = inactive

Past entries and their recorded results:
* OCC1CO1 (configuration not stated) | no (0)
* CCOP(=S)(OCC)SCn1nnc2ccccc2c1=O | no (0)
* CCCCC(CC)COP(=O)(Oc1ccccc1)Oc1ccccc1 (configuration not stated) | yes (1)
* O=P(OCC(Br)CBr)(OCC(Br)CBr)OCC(Br)CBr (configuration not stated) | no (0)
* NNC(N)=S | no (0)
* ClC1=C(Cl)C2(Cl)C3C(Cl)C(Cl)CC3C1(Cl)C2(Cl)Cl (configuration not stated) | no (0)

Please examine the following record next.
Request: Outcome? `COP(=O)(O)OC`
Result: no (0)
